- target_entity: T1, human MSLN protein endogenously expressed on OVCAR3 tumor cells (human, UniProt Q13421 296-598)
- T1 construct: whole, on cells; Endogenous target on OVCAR3 cells; kept apart from the recombinant full-length construct; also called mesothelin
- protocol_summary: FACS on OVCAR3 cells
In this section, each of the binders is paired with its reported Maximum mean fluorescence intensity.

>  <binder>
S009-F2.58.8 (antibody, human IgG1, kappa, V domains shown, human-murine chimeric antibody, human IgG1/kappa constant regions) VH: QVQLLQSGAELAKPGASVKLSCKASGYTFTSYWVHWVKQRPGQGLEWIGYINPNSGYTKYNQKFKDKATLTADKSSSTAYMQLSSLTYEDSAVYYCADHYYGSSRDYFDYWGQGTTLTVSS VL: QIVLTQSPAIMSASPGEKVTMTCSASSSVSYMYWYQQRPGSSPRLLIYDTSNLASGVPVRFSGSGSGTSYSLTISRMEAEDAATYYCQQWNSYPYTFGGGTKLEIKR

>  <Maximum mean fluorescence intensity>
13100

$$$$
>  <binder>
S009-F2.39.3 (antibody, human IgG1, kappa, V domains shown, human-murine chimeric antibody, human IgG1/kappa constant regions) VH: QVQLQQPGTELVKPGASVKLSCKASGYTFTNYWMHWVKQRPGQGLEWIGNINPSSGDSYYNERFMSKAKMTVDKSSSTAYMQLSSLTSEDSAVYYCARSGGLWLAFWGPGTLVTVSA VL: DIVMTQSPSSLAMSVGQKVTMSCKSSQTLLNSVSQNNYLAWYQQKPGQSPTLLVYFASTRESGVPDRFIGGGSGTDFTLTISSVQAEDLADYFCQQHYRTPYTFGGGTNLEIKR

>  <Maximum mean fluorescence intensity>
14600

$$$$
>  <binder>
S009-F2.21.4 (antibody, human IgG1, kappa, V domains shown, human-murine chimeric antibody, human IgG1/kappa constant regions) VH: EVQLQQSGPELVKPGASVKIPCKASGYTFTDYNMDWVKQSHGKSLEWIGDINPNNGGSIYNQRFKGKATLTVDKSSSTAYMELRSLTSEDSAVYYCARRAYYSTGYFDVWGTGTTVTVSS VL: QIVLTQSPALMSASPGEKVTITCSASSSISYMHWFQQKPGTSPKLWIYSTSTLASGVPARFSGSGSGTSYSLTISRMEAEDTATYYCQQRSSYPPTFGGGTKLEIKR

>  <Maximum mean fluorescence intensity>
5260

$$$$
>  <binder>
S009-F2.23.12 (antibody, human IgG1, kappa, V domains shown, human-murine chimeric antibody, human IgG1/kappa constant regions) VH: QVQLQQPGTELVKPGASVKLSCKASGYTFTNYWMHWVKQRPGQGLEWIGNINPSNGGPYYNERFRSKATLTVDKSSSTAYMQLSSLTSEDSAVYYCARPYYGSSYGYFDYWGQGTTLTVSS VL: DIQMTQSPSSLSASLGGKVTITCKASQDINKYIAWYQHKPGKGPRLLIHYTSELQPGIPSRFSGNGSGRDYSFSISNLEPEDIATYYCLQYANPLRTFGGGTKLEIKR

>  <Maximum mean fluorescence intensity>
14600

$$$$
>  <binder>
S009-F2.38.12 (antibody, human IgG1, kappa, V domains shown, human-murine chimeric antibody, human IgG1/kappa constant regions) VH: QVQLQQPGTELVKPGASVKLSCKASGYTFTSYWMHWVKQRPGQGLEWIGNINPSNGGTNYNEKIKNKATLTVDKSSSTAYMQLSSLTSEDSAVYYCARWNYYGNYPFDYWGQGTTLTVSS VL: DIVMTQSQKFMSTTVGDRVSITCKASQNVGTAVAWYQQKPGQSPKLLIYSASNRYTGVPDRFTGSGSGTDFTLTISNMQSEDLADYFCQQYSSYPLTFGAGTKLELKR

>  <Maximum mean fluorescence intensity>
4510

$$$$
>  <binder>
S009-F2-56.12 (antibody, human IgG1, kappa, V domains shown, human-murine chimeric antibody, human IgG1/kappa constant regions) VH: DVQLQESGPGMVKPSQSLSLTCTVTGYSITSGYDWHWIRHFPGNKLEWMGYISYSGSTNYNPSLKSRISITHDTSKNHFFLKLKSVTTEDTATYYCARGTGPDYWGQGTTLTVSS VL: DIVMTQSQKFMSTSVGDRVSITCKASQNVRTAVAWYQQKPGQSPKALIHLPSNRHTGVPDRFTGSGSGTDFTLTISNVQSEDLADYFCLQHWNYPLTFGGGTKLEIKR

>  <Maximum mean fluorescence intensity>
6140

$$$$
